For each record, write down the corresponding cell viability.
- Test system: P12-Ichikawa
- experimental_details: cell viability relative to DMSO control; higher = less cytotoxic
- condition_details: RPMI 5 mM glucose + 10% dialyzed FBS; 48 h; 46.1 µM
One number for each entry, in %.

Cc1ccc([S+](=O)([O-])Nc2nc3ccccc3nc2Nc2ccc3nsnc3c2)cc1; 30.4
COC/1=C/C=C2\C(=C/C1=O)[C@H](CCC3=CC(=C(OC)C(=C23)OC)OC)NC(C)=O; 1.22
O=C(Oc1ccc([N+](=O)[O-])cc1)N1CCC(C(O)(c2ccc3c(c2)OCO3)c2ccc3c(c2)OCO3)CC1; 84.9

Exam item: Provide one value: measured cell viability of C[S+](=O)([O-])c1ccc(-c2cnc(N)c(C(=O)Nc3ccccc3)n2)cc1
Marked response: 69.7

====

- Tested on: SEM cells
- experimental_details: cell viability relative to DMSO control; higher = less cytotoxic
- condition_details: RPMI 5 mM glucose + 10% FBS; 48 h; 0.19 µM
measured_attribute: cell viability

Worked cases, cell viability given:
Cc1cc(Nc2cc(CN3CCOCC3)c3nc(C)c(Cc4ccc(Cl)cc4F)n3n2)[nH]n1; 83.2%
CC(/C=C/C(=O)NO)=C\[C@@H](C)C(=O)c1ccc(N(C)C)cc1; 115%
CC(C)c1cc(C(=O)N2Cc3ccc(CN4CCN(C)CC4)cc3C2)c(O)cc1O; 107%

Items follow; give cell viability for each.
1. CC[C@@]1(O)C(=O)OC\C2=C1\C=C\3N(CC4=C3N=C5C=CC=CC5=C4)C2=O
2. C[C@]12CC[C@H]3[C@@H](CCC/4=C/C(=O)CC[C@]34C)[C@@H]1CC[C@@H]2O
3. COC[C@H](c1ccc(C(F)(F)F)cc1)N1CCN(C2(C)CCN(C(=O)c3c(C)ncnc3C)CC2)C[C@H]1C.O=C(O)/C=C\C(=O)O

Marked response:
11.4%
129%
87.6%

Items follow; give cell viability for each.
1. COc1ccc2c(c1)c(CC(=O)OCC(=O)O)c(C)n2C(=O)c1ccc(Cl)cc1
2. COc1ccc2[nH]c([S+]([O-])Cc3ncc(C)c(OC)c3C)nc2c1 (stereo not drawn)

Marked response:
111%
100%

====

For each record, write down the corresponding cell viability.
- Test system: P12-Ichikawa
- experimental_details: cell viability relative to DMSO control; higher = less cytotoxic
- condition_details: HPLM + 10% dialyzed FBS; 48 h; 0.569 µM
Give bare numbers, in %.

CC[C@]12\C=C/CN3CC[C@]4([C@@H](N(C)C5=CC(=C(C=C45)[C@]6(C[C@H]7C[C@H](CN(C7)CC8=C6[NH]C9=C8C=CC=C9)C(C)(F)F)C(=O)OC)OC)[C@](O)([C@@H]1OC(C)=O)C(=O)OC)[C@H]23; 15.3
CO/C1=C/C(C)=C\[C@@H](C)[C@@H](O)[C@@H](C)C/C(C)=C\C=C/[C@H](OC)[C@@H]([C@@H](C)[C@@H](O)[C@H](C)[C@@]2(O)C[C@@H](O)[C@H](C)[C@@H](C(C)C)O2)OC1=O; 34.8

// switching to the query compound
Exam item: Enter cell viability (test system P12-Ichikawa) for Cc1cnc(C(=O)O)c[n+]1[O-]
Marked response: 114

====

- System: P12-Ichikawa
- experimental_details: cell viability relative to DMSO control; higher = less cytotoxic
- condition_details: RPMI 5 mM glucose + 10% dialyzed FBS; 48 h; 46.1 µM
For each record, write down the corresponding cell viability.
Answers are plain numbers, in %.

Worked cases, cell viability given:
CN[C@@H](C)C(=O)N[C@H]1CN(C(=O)CC(C)C)CC[C@H]2CC[C@@H](C(=O)NC(c3ccccc3)c3ccccc3)N2C1=O; 16.1
Nc1nc(N)c2nc(-c3cccc(O)c3)c(-c3cccc(O)c3)nc2n1; 52.1
Nc1nnc(-c2cccc(Cl)c2Cl)c(N)n1; 92.1

Exam item: Provide one value: measured cell viability of COc1cc([C@H]2Oc3cc([C@H]4Oc5cc(O)cc(O)c5C(=O)[C@@H]4O)ccc3O[C@@H]2CO)ccc1O
Marked response: 90.1
